- EXPERIMENTAL SYSTEM: SIRT6 (Homo sapiens, UniProt Q8N6T7)
- Sequence (Q8N6T7 whole entry): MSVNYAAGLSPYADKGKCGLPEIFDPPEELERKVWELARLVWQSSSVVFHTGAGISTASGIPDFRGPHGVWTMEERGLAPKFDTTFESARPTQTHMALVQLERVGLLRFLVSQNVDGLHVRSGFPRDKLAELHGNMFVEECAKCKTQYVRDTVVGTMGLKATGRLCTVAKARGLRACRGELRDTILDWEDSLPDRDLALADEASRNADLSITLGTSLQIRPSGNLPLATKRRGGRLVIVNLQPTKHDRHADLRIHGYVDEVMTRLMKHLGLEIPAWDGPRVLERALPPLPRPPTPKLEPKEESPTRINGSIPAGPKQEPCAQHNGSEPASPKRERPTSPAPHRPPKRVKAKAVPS
- TEST DESCRIPTION: HPLC deacetylation assay with H3K9Ac peptide; dose response and steady-state kinetics (activation)
VALUE TYPE: EC50 (µM)
Write the value in µM as a bare number.

Ask | Observed EC50 on SIRT6 (Homo sapiens, UniProt Q8N6T7) for "Cc1c(-c2ccccc2)oc2c(CC(=O)OCC(=O)c3ccc(O)cc3O)cccc2c1=O" , please.
Reply | 80
